Could you please report measured solubility at 24 h for the items listed next?
Test name: Solubility in water of model compounds (UV spectroscopy)
Run parameters: water, thermodynamic from solid
Value expressed in µg/mL; do not type the unit.

Read the entry Cc1cc(C=CC#N)cc(C)c1Nc1ccnc(Nc2ccc(C#N)cc2)n1 and write its reported solubility at 24 h.
0.02

Read the entry CC(=O)N1CCN(c2ccc(OCC3COC(Cn4ccnc4)(c4ccc(Cl)cc4Cl)O3)cc2)CC1 (centres unmarked) [Ketoconazole, ketoconazole] and write its reported solubility at 24 h.
10

Read the entry CC(=O)NC[C@H]1CN(c2ccc(N3Cc4cn(C)nc4C3)c(F)c2)C(=O)O1 and write its reported solubility at 24 h.
16
